Task for the reader: assign each of the following molecules its reported GI50.
tested on: MDA-MB-231; test: NCI tumour cell line growth inhibition, 48 h
Calls of active or inactive are those of the source. Cut-off read from the data, not from the text of the source: active = GI50 up to about 1.1 µM and inactive = higher.

Previously resolved entries follow.
CN(/N=C/c1ccccc1C(=O)O)C1=NCCCCN1 | > 100 µM (inactive)
Cn1c2c(c3ccccc31)CCN(CCCCN1CCN(c3ccccc3)CC1)C2=O | > 10 µM (inactive)
CCOC(=O)C1C(=O)CC(O)(c2ccccc2)C(C(=O)OCC)C1c1ccc(N(C)C)cc1 (centres undefined) | 28.2 µM (inactive)
N#Cc1c(N)sc2c1-c1ccccc1OC2 | 46.9 µM (inactive)
CCOC(=O)c1nc2cc(C(F)(F)F)ccc2nc1Nc1ccc(F)cc1 | > 100 µM (inactive)
Nc1ccc2c(=O)cc(-c3cccs3)[nH]c2n1 | 11.8 µM (inactive)

Give GI50 for each of the items listed below.
1. CCOc1ccccc1-c1nc2c(s1)C(=O)c1ccccc1C2=O
2. Cc1cc(C)n(C(=O)C(C)Sc2nnc(SC(C)C(=O)n3nc(C)cc3C)s2)n1 (centres undefined)
3. Cc1ccc(CN2CCN(Cc3ccc(C)o3)C(C)C2)o1 (centres undefined)
4. CC(C)C(C/C=C1\CC(CO)(COC(=O)c2ccccc2)OC1=O)C(C)C (centres undefined)

Result:
["2.84 µM (inactive)", "> 100 µM (inactive)", "> 100 µM (inactive)", "21.3 µM (inactive)"]
